Target: Urotensin-2 receptor (Homo sapiens) (UniProt Q9UKP6)
Sequence (Q9UKP6 whole entry): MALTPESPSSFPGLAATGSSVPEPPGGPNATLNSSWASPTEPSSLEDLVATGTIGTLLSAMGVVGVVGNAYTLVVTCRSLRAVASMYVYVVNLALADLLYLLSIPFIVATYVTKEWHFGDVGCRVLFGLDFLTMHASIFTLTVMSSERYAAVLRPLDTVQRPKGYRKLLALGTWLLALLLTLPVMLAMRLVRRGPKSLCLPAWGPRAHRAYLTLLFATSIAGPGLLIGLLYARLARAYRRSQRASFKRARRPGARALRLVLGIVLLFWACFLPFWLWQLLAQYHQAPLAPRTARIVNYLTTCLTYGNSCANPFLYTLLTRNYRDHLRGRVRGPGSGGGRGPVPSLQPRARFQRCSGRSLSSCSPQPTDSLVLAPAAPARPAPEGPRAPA
Assay: Modulation of human UTR stably expressed in HEK293 cells assessed as increase in Ca2+ level at 0.1 to 100 nM by Fura 2-AM dye based calcium mobilization assay
Assay type: functional, cell-based
Details: dose 0.1-100 nM
Active and inactive are the calls of the source. The calls are words filed in the database; no cut-off is given here. Where a SMILES comes first, the peptide text is derived from it. Bridges are numbered along the chain shown (N, C = ends). [ ]: non-standard residue; d: D form. hSer = N[C@@H](CCO)C(=O)O
OBSERVABLE: Activity

COMPOUND	RESULT VALUE
CC(C)[C@H](NC(=O)[C@@H]1CSSC(C)(C)[C@H](NC(=O)[C@H](CC(=O)O)NC(=O)[C@@H]2CCCN2C(=O)[C@@H](NC(=O)[C@@H](N)CCO)[C@@H](C)O)C(=O)N[C@@H](Cc2ccccc2)C(=O)N[C@H](Cc2c[nH]c3ccccc23)C(=O)N[C@@H](CCCN)C(=O)N[C@@H](Cc2ccc(O)cc2)C(=O)N1)C(=O)O	inactive
CC(C)[C@H](NC(=O)[C@@H]1CSSC(C)(C)[C@H](NC(=O)[C@H](CC(=O)O)NC(=O)[C@@H]2CCCN2C(=O)[C@@H](NC(=O)[C@@H](N)CCN)[C@@H](C)O)C(=O)N[C@@H](Cc2ccccc2)C(=O)N[C@H](Cc2c[nH]c3ccccc23)C(=O)N[C@@H](CCCN)C(=O)N[C@@H](Cc2ccc(O)cc2)C(=O)N1)C(=O)O	inactive
CC(C)[C@H](NC(=O)[C@@H]1CSSC[C@H](NC(=O)[C@H](CC(=O)O)NC(=O)[C@@H]2CCCN2C(=O)[C@@H](NC(=O)[C@@H](N)CCO)[C@@H](C)O)C(=O)N[C@@H](Cc2ccccc2)C(=O)N[C@@H](Cc2c[nH]c3ccccc23)C(=O)N[C@@H](CCCCN)C(=O)N[C@@H](Cc2ccc(O)cc2)C(=O)N1)C(=O)O (H-[hSer]TPDCFWKYCV-OH; disulfide 5-10)	inactive
